Ref: the supplement of paper PMC9170038

Test system: MS2 coat protein
Assay explanation: apparent KD of MS2 coat protein; higher = weaker reporter binding
Experimental context: Eterna round: R107; input ligand: tryptophan 2.4 mM
Binary classification by apparent KD of MS2 coat protein, with 30 nM as an inclusive lower bound for YES; all other cases are NO.

macromolecule_sequence="CGCUGGCCACAUGAGGAUCACCCAUGUGAAGGAGCGGCGAAUAAGCCAGGUAGGUCGCGCAUGAAUAAAUCAUGUAGGUUGCGAA [XArg-A 11 V2]" target_entity="MS2 coat protein" group_label=NO
macromolecule_sequence="AGACAUGAGGAUCACCCAUGUAGUACGGAUACCAGAUCCAGAUGCGUCCCUUGGCAGCUGUAGUACAGCGUUACAUCGCUCAUAG [Exclusion - Theophylline A (Freestyle 25)]" target_entity="MS2 coat protein" group_label=YES
macromolecule_sequence="UUUGCACAUGAGGAUCACCCAUGUACAGAUACCAGCCUCAUCUACGGCCCUUGGCAGCUGAGAUAAUGGUGACGUGAUGGGCUUU [Edaniser]" target_entity="MS2 coat protein" group_label=NO
macromolecule_sequence="UUGGGUUUGUGAAGGAGCGGGUAUGUUUUCUAGUGGAUCCUAACAUGAGGAUCACCCAUGUCCCAGGUAGGUCGCGCGGGUUUGG [12.U]" target_entity="MS2 coat protein" group_label=YES
macromolecule_sequence="ACGUCCAGGUUAAUCGUGGACAUGGUCGAUACCAGUAUUUUAAUCUACCCUUGGCAGCGACAUGAGGAUCACCCAUGUGCGAUGA [XTheo A #15]" target_entity="MS2 coat protein" group_label=NO

----------
System: MS2 coat protein
Assay explanation: apparent KD of MS2 coat protein; designed switch direction (-1 OFF switch, 1 ON switch): -1; higher = weaker reporter binding
Experimental context: input ligand: microRNA oligo, concentration not stated
Endpoint name: apparent KD of MS2 coat protein

macromolecule_sequence="CUAAAUCAUGUAGGAUAUGCGUAGCGAAGCUAUGCAGAAGGACAUGAGGAUCACCCAUGUUCUUCCGUCUGCGUACAGACGGAA [Mat - Exclusion NG 1 - Mod of JL - D29] (Eterna round: R96, puzzle: Exclusion NG 1)" value="29.1 nM"
macromolecule_sequence="GUCAGCUCGUGAGGAUAUACAUGAGGAUCACCCAUGUGGUCAAUAGCAGCUUCGGCUGCAAUAAUGUAGAAGGCACGAGCUGAC [ENG2/8-D] (Eterna round: R96, puzzle: Exclusion NG 2)" value="1030 nM"
macromolecule_sequence="ACAAGCUUAAAAAUCCUAAACAUGAGGAUCACCCAUGUUCGUCUUAUAAAAAUAAAAAUAAAAAACAAAAAAUAAAA [Sensor V2: 71] (Eterna round: R96, puzzle: Sensor v2, turn-off variant)" value="228 nM"
macromolecule_sequence="CUGAUGUGAGGAUAUCGGGCUACGGCCAGGCCGCUAGCAUUCGAGAAGGCACAUGAGGAUCACCCAUGUGAGAA [Laquzara] (Eterna round: R96, puzzle: Exclusion 4)" value="112 nM"
macromolecule_sequence="GUCUGGUUAGGAUAUACAGUGUCCACGAGUUAGUUGCCCUAACAUGAGGAUCACCCAUGUAGAAGGAGCGAGAA [Erisared] (Eterna round: R96, puzzle: Exclusion 2)" value="13.3 nM"
macromolecule_sequence="ACGGGUAAGUAAGGAUAUCCAACAGGCUGAUUUCAGUCUGAACAUGAGGAUCACCCAUGUGGGUGGGAGAAGGUACUCUCCCGC [Atbienarza] (Eterna round: R96, puzzle: Exclusion NG 2)" value="86.3 nM"
macromolecule_sequence="CACCGUUAACUAGGAUAUAGUACAUGAGGAUCACCCAUGUAAUAAAUGAGAAUUUCGGAUGUAUGCUAGAAGGAGUAAAUCGGC [Ostricism 48 - Jieux - Exclusion NG 2] (Eterna round: R96, puzzle: Exclusion NG 2)" value="45.5 nM"
macromolecule_sequence="UGUUGUCGCGUAGGAUAUUGUCAACAGGCAAUAGGAUAUGCGAAAGCAGAAGGAUCGCCAACAGGCGAGAAGGACGGGACAACU [pwkr exNG2 2xF7 2xFMN.5] (Eterna round: R96, puzzle: Exclusion NG 2)" value="913 nM"
